# assayed target: T1, recombinant human CD123-Fc (human, UniProt P26951 19-305)
# T1 construct: not shown: Fc part of CD123-Fc
# T1 sequence: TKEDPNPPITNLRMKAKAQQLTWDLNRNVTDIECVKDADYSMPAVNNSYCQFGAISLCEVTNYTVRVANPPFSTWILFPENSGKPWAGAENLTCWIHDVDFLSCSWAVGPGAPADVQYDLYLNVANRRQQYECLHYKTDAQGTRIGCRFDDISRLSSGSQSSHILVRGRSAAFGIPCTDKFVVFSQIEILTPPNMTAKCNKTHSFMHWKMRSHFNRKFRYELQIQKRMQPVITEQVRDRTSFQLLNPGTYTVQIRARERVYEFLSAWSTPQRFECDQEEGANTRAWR
# procedure text: phage ELISA, A450 target/A450 IgG1-Fc
observable: ELISA_avg (ratio)
Write it as a number; the unit ratio goes unstated.

In [3]: df
Out[3]:
                                     binder  result_value
0  SEQ ID NO 725 (designed binder) MGSWYEFEHRLDAIYDRLWALGGSEAELAAFEKEIAAFESELQAYKGKGNPEVEWLREEAAWIRLWLQAYRHN           6.3
1  SEQ ID NO 708 (designed binder) MGSWTEFEWRLYAIEDRLMALGGSEAELAAFEKEIAAFESELQAYKGKGNPEVEFLRDEAADIRQYLQAYRHN           4.2

Per the records, this binder ( SEQ ID NO 638 (designed binder) MGSWWEFEDRLWAIDRRLMALGGSEAELAVFEQMIAHFEQILQVYKGKGNPEVEALHFEAHAIGMELAAYRHN ) has ELISA_avg equal to 4.6

Per the records, this binder ( SEQ ID NO 674 (designed binder) MGSWEEFTIRLGAIYWRLFALGGSEAELANFEWFIAEFEYELQPYKGKGNPEVEALVIEANAIDGELQAYRHN ) has ELISA_avg equal to 3.3

Per the records, this binder ( SEQ ID NO 629 (designed binder) MGSWFEFPYRLEAIEERLYALGGSEAELAQFEQFIAWFEMDLQDYKGKGNPEVEALWFEANAIVEELDAYRHN ) has ELISA_avg equal to 3.1
